experiment: LD50 in mice
Assay type: in vivo
stated_conditions: mouse, in vivo, male mice; HCl salts; read-out: LD₅₀
Description: The LD₅₀ in mice of (+)-, (-) and [for comparison] There are no significant differences in the toxicity of the tested compounds.
measurement_name: LD50 (mg/kg)

compound="CC1OC2(CS1)CN1CCC2CC1 (racemic) [(±)-cis-isomer]" measurement_name=LD50 u=mg/kg measured=45
compound="CC1OC2(CS1)CN1CCC2CC1 (single isomer, unassigned; (+)) [(+)-cis-isomer]" measurement_name=LD50 u=mg/kg measured=39.1

---

assay_target: muscarinic receptors
Format: binding, rat
stated_conditions: rat forebrain homogenates; mean ± spread (n); Ki = IC50 ÷ (1 + C/KD); read-out: Ki(^3H-QNB)
pKi: −log10 of the molar value.
Each record here notes measured pKi.
measurement_name: pKi

chemical_structure=C[N+](C)(C)CC#CCOC(=O)Nc1cccc(Cl)c1 measured=4.85
chemical_structure=O=C1CCCN1CC#CCN1CCCC1 measured=5.77

---

assay_target: M₁ receptors (Rattus norvegicus)
Sequence (P08482 whole entry): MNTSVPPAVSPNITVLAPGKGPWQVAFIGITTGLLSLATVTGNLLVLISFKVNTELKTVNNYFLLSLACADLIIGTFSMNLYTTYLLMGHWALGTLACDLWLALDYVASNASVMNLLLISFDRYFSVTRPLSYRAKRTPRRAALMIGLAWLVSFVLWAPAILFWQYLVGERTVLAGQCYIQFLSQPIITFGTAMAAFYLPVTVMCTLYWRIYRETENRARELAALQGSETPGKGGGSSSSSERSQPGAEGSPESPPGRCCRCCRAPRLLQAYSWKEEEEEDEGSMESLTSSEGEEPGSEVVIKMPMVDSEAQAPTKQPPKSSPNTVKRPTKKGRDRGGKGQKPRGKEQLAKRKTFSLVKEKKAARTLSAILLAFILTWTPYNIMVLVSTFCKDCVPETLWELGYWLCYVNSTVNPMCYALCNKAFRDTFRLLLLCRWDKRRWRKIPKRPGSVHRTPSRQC
experiment: biochemical
Assay type: binding
stated_conditions: read-out: Ki(^3H-PZ)
measurement_name: Ki (µM)

compound="CC1OC2(CS1)CN1CCC2CC1 (racemic) [(±)-trans-isomer]" assay_target="M₁ receptors (Rattus norvegicus)" measured=14.6

---

assay_target: UniProt P08482
experiment: biochemical
Assay type: binding
stated_conditions: Ki(^3H-PZ)
pKi: −log10 of the molar value.
Each record here notes measured pKi.
measurement_name: pKi

compound="CC1OC2(CS1)CN1CCC2CC1 (racemic) [(±)-cis-isomer]" measured=6.22
compound="CC1OC2(CS1)CN1CCC2CC1 (single isomer, unassigned; (+)) [(+)-cis-isomer]" measured=5.02
compound=O=C1CCCN1CC#CCN1CCCC1 measured=6.22
compound=C[N+](C)(C)CC#CCOC(=O)Nc1cccc(Cl)c1 measured=5.31
compound="CC1OC2(CS1)CN1CCC2CC1 (single isomer, unassigned; (-)) [(-)-cis-isomer]" measured=5.96

---

Tested on: isolated guinea pig ileum
experiment: Isolated guinea pig ileum induced contraction
Assay type: cell-based
stated_conditions: Cavia porcellus; induced contraction of isolated guinea pig ileum
measurement_name: EC50 (nM)

chemical_structure=CC(=O)OCC[N+](C)(C)C measured=50

---

assay_target: muscarinic receptors
experiment: Displacement of 3H-cis-dioxolane (3H-CD) from rat forebrain homogenates
Format: binding
stated_conditions: footnote *: expressed in M x 10^-10
pKi: −log10 of the molar value.
measurement_name: pKi

chemical_structure=O=C1CCCN1CC#CCN1CCCC1 assay_target="muscarinic receptors" measured=9.02
